half-life at 1 µM reference
Experiment: Mouse liver microsome stability
Type: in vitro ADME
Settings: liver microsomes, pH 7.4, read-out: stability T1/2 in mouse microsome
Method: Mouse Liver Microsome Stability Testing compound (1.5 μL) or reference compound (500 μM in 5% iPrOH and 95% acetonitrile) was mixed with 18.75 μL of 20 mg/mL liver microsome (Corning) and 479.75 μL of potassium phosphate buffer (0.1 M potassium phosphate buffer, 1 mM EDTA, pH 7.4). The reaction was started by mixing 30 μL of the above mixture (prewarmed to 37 °C) with 15 μL of 6 mM NADPH stock solution (prewarmed to 37 °C). […]

MOLECULE	half-life at 1 µM [min]
Cc1ncsc1-c1ccc(CNC(=O)[C@@H]2C[C@@H](O)CN2C(=O)[C@@H](NC(=O)CCCCCOCCOCCCCCC(=O)Nc2cccc3c2C(=O)N(C2CCC(=O)NC2=O)C3=O)C(C)(C)C)cc1 (stereo partly drawn) [14a]	1.1
Cc1ncsc1-c1ccc(CNC(=O)C2CC(O)CN2C(=O)C(NC(=O)COCCOCCOCCNC(=O)CC2N=C(c3ccc(Cl)cc3)c3c(sc(C)c3C)-n3c(C)nnc32)C(C)(C)C)cc1 (stereo not drawn)	2.5
Cc1ncsc1-c1ccc(CNC(=O)[C@@H]2C[C@@H](O)CN2C(=O)[C@@H](NC(=O)COCCOCCOCCOCCOCCOCC(=O)N[C@H](C(=O)N2C[C@H](O)C[C@H]2C(=O)NCc2ccc(-c3scnc3C)cc2)C(C)(C)C)C(C)(C)C)cc1	25.8

---

target: VHL (Homo sapiens); construct: host or cells: HEK293, transient transfection; test: NanoBRET VHL target engagement, live-cell mode; assay type: cell-based; settings: HEK293 transfected with VHL-NanoLuc, live cells, tracer 1 μM
IC50 reference
PROPERTY NAME: IC50

MOLECULE	OBSERVED
Cc1ncsc1-c1ccc(CNC(=O)[C@@H]2C[C@@H](O)CN2C(=O)[C@@H](NC(=O)COCCOCCOCCOCCOCCOCC(=O)N[C@H](C(=O)N2C[C@H](O)C[C@H]2C(=O)NCc2ccc(-c3scnc3C)cc2)C(C)(C)C)C(C)(C)C)cc1	0.45 µM
Cc1ncsc1-c1ccc(CNC(=O)[C@@H]2C[C@@H](O)CN2C(=O)[C@@H](NC(=O)CCCCCOCCOCCCCCC(=O)Nc2cccc3c2C(=O)N(C2CCC(=O)NC2=O)C3=O)C(C)(C)C)cc1 (some centres unmarked) [14a]	1.33 µM

---

molecular target: VHL (Homo sapiens, UniProt P40337); construct: host or cells: HEK293, transient transfection; test: NanoBRET VHL target engagement, permeabilised-cell mode; assay type: cell-based; details: HEK293 transfected with VHL-NanoLuc, tracer 0.5 μM
Sequence (P40337 whole entry): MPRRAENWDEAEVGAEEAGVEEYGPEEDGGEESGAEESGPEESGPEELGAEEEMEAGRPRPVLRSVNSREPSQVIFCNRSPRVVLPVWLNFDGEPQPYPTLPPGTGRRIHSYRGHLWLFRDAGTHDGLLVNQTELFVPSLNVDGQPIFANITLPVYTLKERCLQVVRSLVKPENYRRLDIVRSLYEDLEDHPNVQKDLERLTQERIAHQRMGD
Listed below: IC50 values for each entry.

MOLECULE	SUBJECT OF TEST	IC50 (nM)
Cc1ncsc1-c1ccc(CNC(=O)[C@@H]2C[C@@H](O)CN2C(=O)[C@@H](NC(=O)CCCCCOCCOCCCCCC(=O)Nc2cccc3c2C(=O)N(C2CCC(=O)NC2=O)C3=O)C(C)(C)C)cc1 (some centres unmarked) [14a]	VHL (Homo sapiens, UniProt P40337)	300
Cc1ncsc1-c1ccc(CNC(=O)[C@@H]2C[C@@H](O)CN2C(=O)[C@@H](NC(=O)COCCOCCOCCOCCOCCOCC(=O)N[C@H](C(=O)N2C[C@H](O)C[C@H]2C(=O)NCc2ccc(-c3scnc3C)cc2)C(C)(C)C)C(C)(C)C)cc1	VHL (Homo sapiens, UniProt P40337)	300

---

# reported solubility kinetic at 1 h; entries follow
assay: Kinetic solubility in phosphate buffer and FeSSIF; assay type: physicochemical; conditions: kinetic from iPrOH stock; FeSSIF pH 5.8; read-out: kinetic solubility FeSSIF (pH 5.8)
PROPERTY NAME: solubility kinetic at 1 h (µM)

COMPOUND	UNIT	OBSERVED
Cc1ncsc1-c1ccc(CNC(=O)C2CC(O)CN2C(=O)C(NC(=O)COCCOCCOCCNC(=O)CC2N=C(c3ccc(Cl)cc3)c3c(sc(C)c3C)-n3c(C)nnc32)C(C)(C)C)cc1 (stereo not drawn)	µM	51.1
Cc1ncsc1-c1ccc(CNC(=O)[C@@H]2C[C@@H](O)CN2C(=O)[C@@H](NC(=O)CCCCCOCCOCCCCCC(=O)Nc2cccc3c2C(=O)N(C2CCC(=O)NC2=O)C3=O)C(C)(C)C)cc1 (stereo partly drawn) [14a]	µM	59.5
Cc1ncsc1-c1ccc(CNC(=O)[C@@H]2C[C@@H](O)CN2C(=O)[C@@H](NC(=O)COCCOCCOCCOCCOCCOCC(=O)N[C@H](C(=O)N2C[C@H](O)C[C@H]2C(=O)NCc2ccc(-c3scnc3C)cc2)C(C)(C)C)C(C)(C)C)cc1	µM	38.6

---

Recorded CLint scaled at 1 µM by entry
test: Mouse liver microsome stability; type: in vitro ADME; settings: liver microsomes, pH 7.4
PROPERTY NAME: CLint scaled at 1 µM (mL/min/kg)

COMPOUND	OBSERVED
Cc1ncsc1-c1ccc(CNC(=O)[C@@H]2C[C@@H](O)CN2C(=O)[C@@H](NC(=O)COCCOCCOCCOCCOCCOCC(=O)N[C@H](C(=O)N2C[C@H](O)C[C@H]2C(=O)NCc2ccc(-c3scnc3C)cc2)C(C)(C)C)C(C)(C)C)cc1	212
Cc1ncsc1-c1ccc(CNC(=O)[C@@H]2C[C@@H](O)CN2C(=O)[C@@H](NC(=O)CCCCCOCCOCCCCCC(=O)Nc2cccc3c2C(=O)N(C2CCC(=O)NC2=O)C3=O)C(C)(C)C)cc1 (stereo partly drawn) [14a]	5090
Cc1ncsc1-c1ccc(CNC(=O)C2CC(O)CN2C(=O)C(NC(=O)COCCOCCOCCNC(=O)CC2N=C(c3ccc(Cl)cc3)c3c(sc(C)c3C)-n3c(C)nnc32)C(C)(C)C)cc1 (stereo not drawn)	2180

---

test: Plasma stability assay; format: in vitro ADME; conditions: mouse plasma; read-out: stability T1/2 in mouse plasma
Documented half-life at 2 µM across a set of compounds

COMPOUND	UNIT	half-life at 2 µM
Cc1ncsc1-c1ccc(CNC(=O)C2CC(O)CN2C(=O)C(NC(=O)COCCOCCOCCNC(=O)CC2N=C(c3ccc(Cl)cc3)c3c(sc(C)c3C)-n3c(C)nnc32)C(C)(C)C)cc1 (stereo not drawn) [MZ1]	h	5.78
Cc1ncsc1-c1ccc(CNC(=O)[C@@H]2C[C@@H](O)CN2C(=O)[C@@H](NC(=O)CCCCCOCCOCCCCCC(=O)Nc2cccc3c2C(=O)N(C2CCC(=O)NC2=O)C3=O)C(C)(C)C)cc1 (stereo partly drawn) [14a]	h	0.557
Cc1ncsc1-c1ccc(CNC(=O)[C@@H]2C[C@@H](O)CN2C(=O)[C@@H](NC(=O)COCCOCCOCCOCCOCCOCC(=O)N[C@H](C(=O)N2C[C@H](O)C[C@H]2C(=O)NCc2ccc(-c3scnc3C)cc2)C(C)(C)C)C(C)(C)C)cc1 [CM11]	h	3.9
